MEASURED ON: v-abl tyrosine kinase (Abelson murine leukemia virus) (UniProt P00521)
Sequence (P00521 whole entry, looked up): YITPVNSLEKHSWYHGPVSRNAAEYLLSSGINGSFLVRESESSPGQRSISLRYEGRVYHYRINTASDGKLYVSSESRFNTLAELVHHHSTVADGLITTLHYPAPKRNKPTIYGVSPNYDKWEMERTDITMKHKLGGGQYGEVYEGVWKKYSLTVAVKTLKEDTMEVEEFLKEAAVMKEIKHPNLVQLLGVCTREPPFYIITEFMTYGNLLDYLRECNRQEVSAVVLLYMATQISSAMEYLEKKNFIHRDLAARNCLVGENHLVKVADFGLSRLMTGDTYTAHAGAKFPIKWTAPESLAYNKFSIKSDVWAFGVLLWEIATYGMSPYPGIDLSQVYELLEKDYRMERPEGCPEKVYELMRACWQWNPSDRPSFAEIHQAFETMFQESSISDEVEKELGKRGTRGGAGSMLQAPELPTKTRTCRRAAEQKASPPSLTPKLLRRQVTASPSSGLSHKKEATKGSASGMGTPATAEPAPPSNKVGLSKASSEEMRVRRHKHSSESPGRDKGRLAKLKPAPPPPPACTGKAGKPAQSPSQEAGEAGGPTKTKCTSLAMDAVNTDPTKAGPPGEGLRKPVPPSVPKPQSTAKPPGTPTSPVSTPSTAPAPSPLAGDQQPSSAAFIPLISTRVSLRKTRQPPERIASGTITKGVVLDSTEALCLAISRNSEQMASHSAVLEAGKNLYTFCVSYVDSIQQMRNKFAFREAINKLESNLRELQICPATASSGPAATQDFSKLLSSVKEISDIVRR
ASSAY COMMENT: In vitro inhibition of the v-abl tyrosine kinase activity using purified v-abl kinase
QUANTITY: IC50

Example entries and their recorded answers appear below.
CN(C)CCCC(=O)c1ccc(OCc2ccccc2)cc1 = > 100 µM
C=C(CN1CCCCC1)C(=O)c1ccc(OCc2ccccc2)cc1 = > 100 µM
Cc1ccc(SCC(CN(C)C)C(=O)c2ccc(OCc3ccccc3)cc2)cc1C (centres undefined) = > 100 µM
O=C(CCN1CCCCC1)c1ccc(OCc2ccccc2)cc1 = > 100 µM
O=C(CCN1CCOCC1)c1ccc(OCc2ccccc2)cc1 = > 100 µM
C=C(CN1CCOCC1)C(=O)c1ccc(OCc2ccccc2)cc1 = > 100 µM
O=c1c(-c2ccc(O)cc2)coc2cc(O)cc(O)c12 [GENISTEIN] = 10 µM
CCOC(=O)C1CCN(CCC(=O)c2ccc(OCc3ccccc3)cc2)CC1 = > 100 µM

Shifting focus to the compound that follows.
Recorded IC50 for C=C(CN(C)C)C(=O)c1ccc(OS(=O)(=O)c2ccc(C(=O)N(C)C)cc2)cc1 , please?
70 µM

* * *

ASSAY COMMENT: In vitro inhibition of the Protein kinase C tyrosine kinase activity in A431 membranes
Type: cell membranes
Let's look at some compounds and their measured IC50.
Express your answer in µM, writing the number without its unit.

C=C(CN(C)C)C(=O)c1ccccc1 = 500
C=C(CN(C)C)C(=O)c1ccc(OS(=O)(=O)c2ccc(C(=O)O)c(O)c2)cc1 = 140
O=C(CCN1CCOCC1)c1ccc(OCc2ccccc2)cc1 = 420
C=C(CN1CCOCC1)C(=O)c1ccc(OCc2ccccc2)cc1 = 110

What IC50 value was documented for this compound, C=C(CN(C)C)C(=O)c1ccc(OCc2ccccc2)c(O)c1 ?
86

Record: C=C(CN(C)C)C(=O)c1ccc(OS(=O)(=O)c2ccc(C(=O)N(C)C)cc2)cc1
180

Also CN(C)CCC(=O)c1ccc(OCc2ccccc2)c(O)c1 ?
500

Let us now turn to C=C(CN(C)C)C(=O)c1ccc(OCc2ccccc2)cc1
215

Then C=C(CN1CCNCC1)C(=O)c1ccc(OCc2ccccc2)cc1 ?
310

Now the compound C=C(CN1CCCCC1)C(=O)c1ccc(OCc2ccccc2)cc1
140

Would you kindly repeat that for O=c1c(-c2ccc(O)cc2)coc2cc(O)cc(O)c12 [GENISTEIN] ?
15

* * *

MEASURED ON: Epidermal growth factor receptor (Homo sapiens, UniProt P00533)
Sequence (P00533 whole entry): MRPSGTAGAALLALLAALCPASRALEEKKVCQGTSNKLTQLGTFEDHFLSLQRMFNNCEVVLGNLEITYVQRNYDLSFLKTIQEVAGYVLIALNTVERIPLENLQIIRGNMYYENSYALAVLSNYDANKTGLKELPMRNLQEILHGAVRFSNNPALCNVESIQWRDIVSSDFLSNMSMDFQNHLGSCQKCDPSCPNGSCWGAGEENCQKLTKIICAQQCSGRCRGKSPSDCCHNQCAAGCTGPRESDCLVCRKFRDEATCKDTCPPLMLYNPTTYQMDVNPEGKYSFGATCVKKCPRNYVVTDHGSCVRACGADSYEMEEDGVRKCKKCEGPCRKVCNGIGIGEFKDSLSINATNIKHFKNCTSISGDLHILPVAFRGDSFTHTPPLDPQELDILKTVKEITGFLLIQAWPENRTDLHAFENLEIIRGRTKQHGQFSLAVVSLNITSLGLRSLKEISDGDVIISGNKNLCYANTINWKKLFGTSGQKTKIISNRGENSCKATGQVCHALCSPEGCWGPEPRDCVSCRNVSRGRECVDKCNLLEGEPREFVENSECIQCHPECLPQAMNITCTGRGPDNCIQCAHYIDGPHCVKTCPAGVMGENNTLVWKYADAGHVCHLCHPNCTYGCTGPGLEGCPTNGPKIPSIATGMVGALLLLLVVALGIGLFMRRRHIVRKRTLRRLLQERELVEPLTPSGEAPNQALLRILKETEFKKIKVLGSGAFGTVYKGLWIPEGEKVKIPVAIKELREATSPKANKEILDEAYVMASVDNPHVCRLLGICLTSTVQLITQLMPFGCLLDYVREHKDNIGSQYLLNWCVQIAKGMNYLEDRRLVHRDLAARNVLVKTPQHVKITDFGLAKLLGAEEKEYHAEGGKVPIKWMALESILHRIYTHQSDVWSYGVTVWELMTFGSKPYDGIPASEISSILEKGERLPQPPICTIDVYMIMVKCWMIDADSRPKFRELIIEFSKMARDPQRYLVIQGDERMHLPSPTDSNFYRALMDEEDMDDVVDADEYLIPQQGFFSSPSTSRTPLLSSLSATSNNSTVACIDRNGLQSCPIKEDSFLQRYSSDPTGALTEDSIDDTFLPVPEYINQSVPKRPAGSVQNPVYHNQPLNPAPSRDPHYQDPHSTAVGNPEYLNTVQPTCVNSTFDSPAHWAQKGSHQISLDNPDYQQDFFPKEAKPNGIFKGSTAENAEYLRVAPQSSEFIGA
QUANTITY: pIC50
Note on pIC50: it is the negative log10 of concentration, concentration in mol/L.

Guide cases for pIC50, answers given:
C=C(CN(C)C)C(=O)c1ccc(OCc2ccccc2)c(O)c1 = 6.17
C=C(CN(C)C)C(=O)c1ccc(OS(=O)(=O)c2ccc(C(=O)O)cc2)cc1 = 6.64
CN(C)CCC(=O)c1ccc(OCc2ccccc2)c(O)c1 = 6.44
CN(C)CCC(=O)c1ccc(OCc2ccccc2)cc1 = 5.82
O=C(CCN1CCCCC1)c1ccc(OCc2ccccc2)cc1 = 5.74
C=C(CN1CCNCC1)C(=O)c1ccc(OCc2ccccc2)cc1 = 5.82

Look at this compound and give its reported pIC50. C=C(CN1CCOCC1)C(=O)c1ccc(OCc2ccccc2)cc1
5.96

Entry to check: CCOC(=O)C1CCN(CCC(=O)c2ccc(OCc3ccccc3)cc2)CC1
6.52
